tested on: Bacillus subtilis DB104 (SP-AmyQ fusion secretion); assay: AmyQ secretion efficiency, weighted average sort bin (1 = best secretion, 10 = worst) (bin number (weighted average, 1-10)); higher = lower secretion efficiency
Cut-off 4 on AmyQ secretion efficiency, inclusive. At or above means Criterion met; below means Criterion not met.

These solved cases illustrate the format of a correct answer.
PRIMARY_SEQUENCE	LABEL
MNKLKRLSMLTVMIASVFIFSSHSLAAQY	Criterion not met
MNKKKKVVSALSISALALSVSGVASAHEI	Criterion not met
MRSYIKVLTMCFLGLILFVPTALGDNS	Criterion not met
MKRFLIGAGVAAVILSGWFIADHQTHKQEM	Criterion met

Please tell me: is the sequence MKKSQYFIVFICFFVLFSVHPIAPAAADS at or over 4 in terms of AmyQ secretion efficiency? Criterion met

How about MLKKKWMVGLLAGCLAAGDDEYNAFATEN ? Criterion met

How about MKKQIITATTAVVLGSTLFAGADSAQSI ? Criterion not met

How about MKLKKRVSMTSKSSGSCRSLFVTPAKAVKT ? Criterion met

How about MKRWMRKTLVVLFTIVTFGLVSPPAALMADKP ? Criterion not met

----------
tested on: Bacillus subtilis DB104 (SP-AmyQ fusion secretion); test: AmyQ secretion efficiency, weighted average sort bin (1 = best secretion, 10 = worst) (bin number (weighted average, 1-10)); higher = lower secretion efficiency
Classification by AmyQ secretion efficiency follows these ranges: low interval (below 3), middle interval (3 to below 6), high interval (6 or more)

PRIMARY_SEQUENCE	LABEL
MRHKIITFILAVVVIIIIRKRKKRRGGSEATSK	middle interval
MTRFILVLSFLSIIVAYPIQTNASPM	middle interval
MFSIFSLIMMTGLLFGLTSPAFAAEK	middle interval
MKNMSCKLVVSVTLFFSFLTIGPLAHDQNS	high interval
MMTTIFAFLTGLMMFGTITAASASPD	middle interval

# classify by AmyQ secretion efficiency band: MKKKKAGLFLAAAVLLCLMVPQQIQGASS middle interval

How about MKKRFFGPIILAFILFAGAIKIPS ? middle interval

How about MGSLTKTSLLLAGLCTAAQMVFVTHASAEES ? middle interval

How about MKKRFFGPIILAFILFAGAIHIPS ? middle interval

How about MKKRRKSFVAVAALSTTAFGAHASAKEI ? high interval

How about MKNMSCKLVVSVTLFFSFLGGGPLAHAQNS ? low interval

How about MKRLFMKASLVLFAVVFVFAVKGAPAKAATH ? low interval

How about MKVPKTMLLSTAAGLLLSLTATSVSAHRK ? middle interval

How about MKTLRTLCVLMILSGVIFFGLKIDADDD ? high interval

How about MKRLLSTLLIGIMLLTFAPSTFAKQD ? low interval

How about MKKSQYFIVFICFFVLFSVHPIAFTPSAAAADS ? low interval

How about MKRITINIITMFIAAAVIKRRRRKKAEAAEK ? high interval

How about MAIIIAIIAAVIVIAALITFNVRNWSPG ? high interval

How about MPYLKRVLLLLVTGLFMSLFAVTATASAQRK ? low interval

How about MRSYIKVLTMCFLGLILFVPALADNS ? high interval

How about MFKKQSRATSALTFSLSLVLPLDGHAKAQEV ? high interval

----------
Each record here notes measured AmyQ secretion efficiency.
system: Bacillus subtilis DB104 (SP-AmyQ fusion secretion); assay: AmyQ secretion efficiency, weighted average sort bin (1 = best secretion, 10 = worst) (bin number (weighted average, 1-10)); higher = lower secretion efficiency

Consider the following illustrative entries.
PRIMARY_SEQUENCE	AmyQ secretion efficiency
MRKKRVITCVMAASLTLGSLLPAGYCTAKED	3.9
MKVLLSALLLLLFARKKKKRASGKKL	6.15
MKKRFSLIMMFILLFMLMSPAFAAEK	3.79

Record lookup: for Bacillus subtilis DB104 (SP-AmyQ fusion secretion), what AmyQ secretion efficiency belongs to MTKKAWFLPLVCVLLISGWLAPAASASTQTT ? 2.01

How about MLKKIALTLCPAIVGSLLFFTAPASAHVK ? 2.44

How about MRPVFPLILSAVLFLSCFFGARQTEASDSKR ? 2.12

----------
test system: Bacillus subtilis DB104 (SP-AmyQ fusion secretion); assay: AmyQ secretion efficiency, weighted average sort bin (1 = best secretion, 10 = worst) (bin number (weighted average, 1-10)); higher = lower secretion efficiency
ASSAY_ENDPOINT: AmyQ secretion efficiency
API note: the answer field is a bare number with no unit suffix.

Consider the following illustrative entries.
PRIMARY_SEQUENCE	REPORTED
MGSSILLSSLAISALSLGLLVSAPTASFAAES	3.62
MTKLKMLSMLTVMIASLFIFSSQALVVQY	5.36
MKKLLAAGIIGLLTVRRRKKKSFAAEK	7.21
MKQGKFSVFLILLLMLTLVVAPKEKAEAASD	1.02
MMITWNVCLTALLSVLLVAGSVPFHAEAKKP	3.89
MMSRKILLSSALSLGMLVSAAPVLATSS	3.37

Requested read-out: AmyQ secretion efficiency. Entry: MLCVMMLLFSAIASFPVSFQAKDQ 8.56

How about MKKRFSLKKRRGLLFGLTSPAFAAEK ? 8.62

How about MPIKKKVMMCLAVTLVFGSMSFPTLTNSGFFKE ? 4.32

How about MTKKAWFLPLVCVLLISGWLAPAASRSAQTT ? 5.9

How about MLMLWNSLALCGLALTLAPCAQAAEP ? 2.76

How about MKSKWMSGLLLVAVGFSFAIVMVHAGET ? 5.38

How about MGMKKKLSLGVASAALGLALVGGGTWFAFN ? 7.33

----------
system: Bacillus subtilis DB104 (SP-AmyQ fusion secretion); assay: AmyQ secretion efficiency, weighted average sort bin (1 = best secretion, 10 = worst) (bin number (weighted average, 1-10)); higher = lower secretion efficiency
ASSAY_ENDPOINT: AmyQ secretion efficiency
API note: the answer field is a bare number with no unit suffix.

Consider the following illustrative entries.
PRIMARY_SEQUENCE	AmyQ secretion efficiency
MRSYIKVLTMCFLGLILFVPTALQDNS	6.11
MGGLGTLVLLLLVTGLFMSLFAVTATASAQTG	3.36
MKRLLSTLLIGIMLLTFAPSPAATVFPVAFAKQD	1.66
MKKCLLFLTTIALILRKRRKKAFAKNT	7.29
MKLRKVLTGSVLSLGLLVSASPIFATSP	1.63

Record lookup: for Bacillus subtilis DB104 (SP-AmyQ fusion secretion), what AmyQ secretion efficiency belongs to MKKIVSILFMFGLVMSIISLGFSQFQPSTVFAADK ? 2.96

How about MFNRLFRVCFLAALIMAFTLPNSVYCQKP ? 4.33

How about MKKKQQRLALTAAAGLGLTALHSAPAAKAAPL ? 5.39

How about MKRFSTAYLLLGILCSAAVFLIGAPSRALGADD ? 3.2

How about MFKKHTISLLIIFLLAEAVLAEPIEAHTV ? 2.51

How about MLKKIALTLCPAIVGSLLFFTAPDSAHVS ? 6.1

----------
test system: Bacillus subtilis DB104 (SP-AmyQ fusion secretion); assay: AmyQ secretion efficiency, weighted average sort bin (1 = best secretion, 10 = worst) (bin number (weighted average, 1-10)); higher = lower secretion efficiency
Each record here notes measured AmyQ secretion efficiency.

PRIMARY_SEQUENCE	TESTED_ON	AmyQ secretion efficiency
MMSTIFAFLTGLMMFGTITAASASPD	Bacillus subtilis DB104 (SP-AmyQ fusion secretion)	4.92
MKKRFSLIMMTGLLFGLTSPAFARKK	Bacillus subtilis DB104 (SP-AmyQ fusion secretion)	7.01
MRKRTKTSLLLAGLCTAAQMVFVTHASAEES	Bacillus subtilis DB104 (SP-AmyQ fusion secretion)	3.51
MTKKAWFLPLVCVLLISGWLAPAASASMQTT	Bacillus subtilis DB104 (SP-AmyQ fusion secretion)	2.07
MRMLWRMLALCLLALLLAPCAQAAEP	Bacillus subtilis DB104 (SP-AmyQ fusion secretion)	1.73
MKLSVKIAGVLTVAAAAMTAKMYRTAKGN	Bacillus subtilis DB104 (SP-AmyQ fusion secretion)	7.39

Let us move to another entry and its AmyQ secretion efficiency.
Requested read-out: AmyQ secretion efficiency. Entry: MLCVMMLLFSAIASFPVSASATAQAKDQ 5.05

----------
test system: Bacillus subtilis DB104 (SP-AmyQ fusion secretion); assay: AmyQ secretion efficiency, weighted average sort bin (1 = best secretion, 10 = worst) (bin number (weighted average, 1-10)); higher = lower secretion efficiency
ASSAY_ENDPOINT: AmyQ secretion efficiency

Consider the following illustrative entries.
PRIMARY_SEQUENCE	REPORTED
MKRTWNVCLTALLSVLLVAGSVTFHAEAKKP	2.82
MMKVLMAFIICLSLILSVLAAPPSGAKAESV	5
MKKFMNFSSVMLATALFLGLTPAGANAADL	4.23

Requested read-out: AmyQ secretion efficiency. Entry: MPYLKRVLLLLVTGLFMSLFAVTATDSAQTG 6.72

How about MKVLLSALLLLLFAEDEEEEASGKKL ? 5.86

How about MKLKKRVSMFLVALTMCGGLFVTPTKAVKT ? 3.85

How about MLKKKWMVGLLAGCLAAGGFSYNAFPTEN ? 5.71

How about MKKAFILSAAAAVGLFTFKKKRRRASAKEL ? 7.21

How about MKLWMRKTLRRKKRKVTFGLVSPPAALMADKP ? 7.28

How about MLKKIALTLCPAIVGSLLFFTAPQSAHVS ? 5.63

How about MTMLRKIIGWILLLCIIPLFAFTVIRSGKEV ? 7.52

How about MQRRQRYRQRVIVIAALITFNVRNASPG ? 8.93

How about MKRIRIPMTLALGAALTIAPLSFASAEED ? 3.29

How about MRKRKKRTIFAFLTGLMMFGTITAASASPD ? 5.69

How about MKKRKRRNFKRFIAAFLVLALMISLVPADFLAKST ? 4.42

How about MRHKIITFILAVVVIIIIGNMIGGGGGSEATSH ? 5.06

How about MKKELLASLVLCLSLKRRKRTNRVFAATT ? 7.57

How about MKKRFFGPIILAFILFAGTASAIAIPS ? 5.82

How about MRKKLKWLSFLLGFIILLFLFKYQQSNNDS ? 6.25
